Reported growth inhibition by item:
Test: NCI Yeast Anticancer Drug Screen. Data for the rad50 strain (AID 155);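 also: 0% = growth of vehicle-only cultures of the same strain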
Conditions: S. cerevisiae rad50 strain growth inhibition; at 5.0 µM (retest, dose inferred, filed as 0.5); hits give high values
About 79,000 compounds went through this panel and 15% of them were active in at least one assay; those are over-represented in the sample as a whole.

>  <smiles.structure>
CC(=O)Nc1cc(C)ccc1C

>  <readout.unit>
%

>  <growth inhibition>
1

$$$$
>  <smiles.structure>
CC(C)(C)CC(C)(C)c1ccc(OCCO)cc1

>  <readout.unit>
%

>  <growth inhibition>
-2

$$$$
>  <smiles.structure>
O=S(=O)(c1ccc(F)cc1)c1ccc(F)cc1

>  <readout.unit>
%

>  <growth inhibition>
-4

$$$$
>  <smiles.structure>
CC1=C(C(=O)Nc2c(C)cccc2C)C(c2ccc3c(c2)OCO3)C(C(=O)Nc2c(C)cccc2C)=C(C)N1

>  <readout.unit>
%

>  <growth inhibition>
25

$$$$

---

Experiment: NCI Yeast Anticancer Drug Screen. Data for the rad50 strain (AID 155);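 also: 0% = growth of vehicle-only cultures of the same strain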
Settings: S. cerevisiae rad50 strain growth inhibition; at 50.0 µM; hits give high values
Compounds without any hit were thinned out: in the full panel of roughly 79,000, 15% have a hit.
Reported growth inhibition by item:
measured.parameter: growth inhibition (%)

>  <smiles.structure>
CCSC1=C(C)C(=O)c2ccccc2C1=O

>  <data.value>
70.1

$$$$
>  <smiles.structure>
CC(=O)c1ccc2ccc3ccc(O)cc3c2c1

>  <data.value>
88.5

$$$$
>  <smiles.structure>
O=[N+]([O-])c1ccc(OCCN(Cc2ccccc2)Cc2ccccc2)c([N+](=O)[O-])c1

>  <data.value>
71.5

$$$$
>  <smiles.structure>
Cc1cc2c(c(Br)c1O)Oc1c(cc(C)c(O)c1Br)C21OC(=O)c2ccccc21

>  <data.value>
90.7

$$$$

---

Reported growth inhibition by item:
Assay: NCI Yeast Anticancer Drug Screen. Data for the bub3 strain (AID 167)
Conditions: S. cerevisiae bub3 mutant strain, at 5.0 µM (retest, dose inferred, filed as 0.5), hits give high values
This is part of a sample that, as a whole, favours compounds with a hit. Of some 79,000 tested, about 15% had one in any assay.

>  <molecule>
CCC(C)c1ccc(O)c(C(C)CC)c1 (stereo unspecified)

>  <growth inhibition (%)>
38

$$$$
>  <molecule>
Nc1nc(N)c2nc3c4ccccc4c4ccccc4c3nc2n1

>  <growth inhibition (%)>
7

$$$$
>  <molecule>
O[Si](c1ccccc1)(c1ccccc1)c1ccccc1.O[Si](c1ccccc1)(c1ccccc1)c1ccccc1.O[Si](c1ccccc1)(c1ccccc1)c1ccccc1.[O]=[V]

>  <growth inhibition (%)>
63

$$$$
>  <molecule>
c1ccc(-c2nc3ccccc3[nH]2)cc1

>  <growth inhibition (%)>
0

$$$$
>  <molecule>
Clc1ccc(/C=C/c2ccccn2)c(Cl)c1

>  <growth inhibition (%)>
51

$$$$
>  <molecule>
N#CC1Sc2ccccc2N1C(=O)OCc1ccccc1 (stereo unspecified)

>  <growth inhibition (%)>
20

$$$$
>  <molecule>
CCOC(=O)/C(C#N)=C\c1ccc([N+](=O)[O-])o1

>  <growth inhibition (%)>
12

$$$$
>  <molecule>
O=C(CNCc1ccccc1)Oc1c(Cl)c(Cl)c(Cl)c(Cl)c1Cl

>  <growth inhibition (%)>
-4

$$$$
>  <molecule>
Nc1nc(N)c2c(Cl)c(CNc3ccc(Cl)c(Cl)c3)ccc2n1

>  <growth inhibition (%)>
74

$$$$
>  <molecule>
NC(=O)NC(=O)C(Cc1ccc(Cl)cc1)c1ccccc1 (stereo unspecified)

>  <growth inhibition (%)>
6

$$$$
>  <molecule>
CCOC(=O)c1c[nH]c2c([N+](=O)[O-])cc(OC)cc2c1=O

>  <growth inhibition (%)>
2

$$$$
>  <molecule>
CCn1c(-c2c(Cl)cc(O)cc2Cl)cc2c(Cl)cc(O)cc21

>  <growth inhibition (%)>
11

$$$$
>  <molecule>
O=C(O)CSCc1ccc(Cl)cc1

>  <growth inhibition (%)>
2

$$$$
>  <molecule>
CCN1CCC(O)(/C=C/c2ccc(C)cc2)C(C(=O)/C=C/c2ccc(C)cc2)C1 (stereo unspecified)

>  <growth inhibition (%)>
14

$$$$
>  <molecule>
NC(CC(=O)O)C(=O)O (stereo unspecified)

>  <growth inhibition (%)>
5

$$$$
>  <molecule>
Cc1cc([N+](=O)[O-])c(C)c2c1[nH]c1ccc(O)cc12

>  <growth inhibition (%)>
78

$$$$

Data origin: PubChem BioAssay (NCI)
